system: 406 cancer cell lines, 73 blood tumor cell lines and 333 solid tumor cell lines; test: OmniScreen drug efficacy on cancer cell lines, fitted area under curve (AUC) of dose-response; type: cell-based; details: Homo sapiens, RPMI-2650, RPMI-2650, Nose
readout.type: pIC50
// pIC50 here means minus log10 of the molar concentration (mol/L)

Prompt: API: value(readout= pIC50, system= 406 cancer cell lines, 73 blood tumor cell lines and 333 solid tumor cell lines, query= Cc1nn(-c2nc(-c3ccc(C(F)(F)F)cc3)c(SC(C)C)s2)c(C(=O)O)c1-c1cccc(F)c1 )
Response: 6.07

###

test system: 407 cancer cell lines; test: Cell viability of cancer cell lines (IC50), CellTiter-Glo Viability Assay, 96 h; format: cell-based; settings: U-87 MG cells, 96 h; read-out: Absolute IC50
readout.type: IC50 (µM)
All answers are understood in µM, so give the number only.

Prompt: Which IC50 reading was recorded for the compound N.N.[Cl][Pt][Cl] [Cisplatin, reference compound] ?
Response: 4.05

###

system: 407 cancer cell lines; experiment: Cell viability of cancer cell lines (IC50), CellTiter-Glo Viability Assay, 96 h; format: cell-based; conditions: Homo sapiens, MOLP-8, 96 h, MOLP8 cells, 96 h; read-out: Absolute IC50
readout.type: IC50 (nM)
All answers are understood in nM, so give the number only.

Prompt: Requested read-out: IC50. Entry: Cc1nn(-c2nc(-c3ccc(C(F)(F)F)cc3)c(SC(C)C)s2)c(C(=O)O)c1-c1cccc(F)c1 [Compound A197]
Response: 990

###

test system: 406 cancer cell lines, 73 blood tumor cell lines and 333 solid tumor cell lines; experiment: OmniScreen drug efficacy on cancer cell lines, fitted area under curve (AUC) of dose-response; format: cell-based; conditions: Homo sapiens, SK-MEL-28, SK-MEL-28, Skin
readout.type: IC50 (µM)
Write down the numeric answer in µM and omit the unit.

Prompt: # lookup: IC50 of Cc1nn(-c2nc(-c3ccc(C(F)(F)F)cc3)c(SC(C)C)s2)c(C(=O)O)c1-c1cccc(F)c1
Response: 105

###

tested on: 407 cancer cell lines; experiment: Cell viability of cancer cell lines (IC50), CellTiter-Glo Viability Assay, 96 h; type: cell-based; settings: 96 h, MC/CAR cells, 96 h; read-out: Absolute IC50
readout.type: IC50 (µM)
// return numeric value only (unit: µM, not printed)

Prompt: Data request, read-out IC50, for Cc1nn(-c2nc(-c3ccc(C(F)(F)F)cc3)c(SC(C)C)s2)c(C(=O)O)c1-c1cccc(F)c1 [Compound A197]
Response: 3.28

###

system: 407 cancer cell lines; experiment: Cell viability of cancer cell lines (IC50), CellTiter-Glo Viability Assay, 96 h; format: cell-based; details: CADO-ES1, CADO-ES1; read-out: Absolute IC50
readout.type: IC50

Prompt: Reported IC50 for Cc1nn(-c2nc(-c3ccc(C(F)(F)F)cc3)c(SC(C)C)s2)c(C(=O)O)c1-c1cccc(F)c1 [Compound A197] : what is it?
Response: 210 nM

###

Tested on: 407 cancer cell lines
Assay: Cell viability of cancer cell lines (IC50), CellTiter-Glo Viability Assay, 96 h
Format: cell-based
Conditions: Homo sapiens, Calu-6, Calu-6; read-out: Absolute IC50
Description: Viability was determined by using the 50% inhibitory concentration (IC50) as determined with the CellTiter-Glo® Viability Assay (Promega). Experiments were initiated by first thawing and equilibrating the CellTiter-Glo® Buffer to room temperature. The lyophilized CellTiter-Glo® Substrate was also equilibrated to room temperature. […] Cells were harvested during the logarithmic growth period, counted, and the cell concentration adjusted to 4.44×10^4 cells/mL using culture medium. […]
pIC50: −log10 of the molar value.
readout.type: pIC50

Prompt: # get_value(readout= pIC50, system= 407 cancer cell lines) for Cc1nn(-c2nc(-c3ccc(C(F)(F)F)cc3)c(SC(C)C)s2)c(C(=O)O)c1-c1cccc(F)c1
Response: < 4.52

###

test system: 407 cancer cell lines; experiment: Cell viability of cancer cell lines (IC50), CellTiter-Glo Viability Assay, 96 h; format: cell-based; conditions: NCI-H1581 cells, 96 h; read-out: Absolute IC50
readout.type: pIC50
Please keep in mind that pIC50 is minus log10 of the molar concentration; only the number is needed.

Prompt: Under 407 cancer cell lines: pIC50 value of N.N.[Cl][Pt][Cl] [Cisplatin, reference compound] ?
Response: 5.53

###

system: 407 cancer cell lines; assay: Cell viability of cancer cell lines (IC50), CellTiter-Glo Viability Assay, 96 h; type: cell-based; details: SU-DHL-6 cells, 96 h; read-out: Absolute IC50
readout.type: IC50 (nM)
Write it as a number; the unit nM goes unstated.

Prompt: // IC50 lookup, key: N.N.[Cl][Pt][Cl] [Cisplatin, reference compound]
Response: 1850

###

tested on: 407 cancer cell lines; assay: Cell viability of cancer cell lines (IC50), CellTiter-Glo Viability Assay, 96 h; type: cell-based; details: U266B1; read-out: Absolute IC50
readout.type: IC50

[
  {
    "compound": "Cc1nn(-c2nc(-c3ccc(C(F)(F)F)cc3)c(SC(C)C)s2)c(C(=O)O)c1-c1cccc(F)c1",
    "IC50": "> 30 µM"
  }
]

Prompt: What measured IC50 goes with N.N.[Cl][Pt][Cl] [Cisplatin, reference compound] ?
Response: 4.53 µM

###

test system: 407 cancer cell lines; experiment: Cell viability of cancer cell lines (IC50), CellTiter-Glo Viability Assay, 96 h; type: cell-based; settings: MOLP8 cells, 96 h; read-out: Absolute IC50
readout.type: pIC50
For clarity, pIC50 is expressed as the negative log10 of concentration in mol/L.

Prompt: Look at this compound and give its reported pIC50. N.N.[Cl][Pt][Cl] [Cisplatin, reference compound]
Response: 5.76

###

system: NCI-H2122; assay: Anti-proliferative activity, CellTiter-Glo, 72 hours: NCI-H2122; type: cell-based, human; settings: Homo sapiens, NCI-H2122 (non-small cell lung cancer), Cell-Titre-Glo
IC50 values, listed per item

Prompt: I would be grateful if you could share the reported IC50 for COC(=O)c1c(-c2cccc(F)c2)c(C)nn1-c1nc(C2=CCC(C(F)(F)F)CC2)c(SC(C)C)s1 (single isomer, unassigned) .
Response: 0.184 µM

Prompt: Form field: reported IC50 of Cc1nn(-c2nc(-c3ccc(C(F)(F)F)cc3)c(SC(C)C)s2)c(C(=O)O)c1-c1cccc(F)c1
Response: 0.2 µM

###

assay: Pharmacokinetics in CD-1 mice, single oral dose compared to single intravenous dose; format: in vivo; conditions: mouse, plasma, 0.5 mg/kg, Intravenous, 0.5 mpk
readout.type: clearance (mL/min/kg)
Value expressed in mL/min/kg; do not type the unit.

Prompt: Param item = Cc1nn(-c2nc(-c3ccc(C(F)(F)F)cc3)c(SC(C)C)s2)c(C(=O)O)c1-c1cccc(F)c1 ; retrieve measured clearance.
Response: 0.58

###

Test system: 406 cancer cell lines, 73 blood tumor cell lines and 333 solid tumor cell lines
Experiment: OmniScreen drug efficacy on cancer cell lines, fitted area under curve (AUC) of dose-response
Format: cell-based
Conditions: SW1271, SW1271, Lung
Protocol: Predictive biomarkers for genes indicating responsiveness to a therapeutic compound can be determined using a cell-based screening technique, such as that offered under the name OmniScreen™ (Crown Biosciences). In one experimental study, predictive biomarkers were determined for Compound A197 efficacy on 406 cancer cell lines, 73 blood tumor cell lines and 333 solid tumor cell lines. […] σECS0 is the standard error of EC50. […] The fitted area under curve (AUC) is calculated by […]
readout.type: IC50 (µM)
Form entry: value (µM) — number only.

Prompt: Query: IC50; subject: Cc1nn(-c2nc(-c3ccc(C(F)(F)F)cc3)c(SC(C)C)s2)c(C(=O)O)c1-c1cccc(F)c1 [Compound A197]
Response: 498

###

system: 407 cancer cell lines; assay: Cell viability of cancer cell lines (IC50), CellTiter-Glo Viability Assay, 96 h; assay type: cell-based; settings: KATO III, 96 h; read-out: Absolute IC50
readout.type: IC50
Give the value; after it, write the unit.

Prompt: So what does the record say about IC50 for N.N.[Cl][Pt][Cl] [Cisplatin, reference compound] ?
Response: 10.5 µM

###

test system: 407 cancer cell lines; assay: Cell viability of cancer cell lines (IC50), CellTiter-Glo Viability Assay, 96 h; type: cell-based; conditions: HCT-15; read-out: Absolute IC50
readout.type: pIC50
Just the number, please; pIC50 means minus log10 of the concentration in mol/L.

Prompt: Tell me reported pIC50 for N.N.[Cl][Pt][Cl] [Cisplatin, reference compound] , tested with 407 cancer cell lines.
Response: 5.49

###

system: 407 cancer cell lines; experiment: Cell viability of cancer cell lines (IC50), CellTiter-Glo Viability Assay, 96 h; type: cell-based; conditions: Homo sapiens, NCI-H1395, NCI-H1395; read-out: Absolute IC50
readout.type: IC50 (nM)
Write the answer as a number in nM, unit excluded.

Prompt: Give the measured IC50 of Cc1nn(-c2nc(-c3ccc(C(F)(F)F)cc3)c(SC(C)C)s2)c(C(=O)O)c1-c1cccc(F)c1 .
Response: 370
